Data origin: PubChem BioAssay AID2417

# procedureSummary: High Content Assay for Compounds that inhibit the Assembly of the Perinucleolar Compartment;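 also: plate controls were DMSO wells for no effect and camptothecin positive control wells for full effect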
# assayConditions: PC3M PTB-GFP, PNC prevalence imaging, 16 h; at 10 µM; active compounds read low
The whole screen tested about 140,000 compounds, of which about 4,300 (3.1%) were called active. About 21% were inconclusive and are not listed. The entries come from a sample that favours actives as a whole.
parameter: activity change (PNC), negative = inhibition

Please review the following examples before continuing.
{"columns": ["compound", "reportedValue"],
 "data": [
  ["CCOC(=O)N1CCN(C(=O)COc2ccc(Br)cc2)CC1", "-29.5% (inactive)"],
  ["O=C(NC(=O)N1CCOCC1)c1ccccc1", "6.63% (inactive)"],
  ["Cc1cc(C(C)(C)C)cc(C)c1N", "15.5% (inactive)"],
  ["Cc1ccc(SC(=O)COc2ccc(C)c(C)c2)cc1", "-106% (active)"],
  ["C=C(C)c1cccc(C(C)(C)NC(=O)NC2CCCC2)c1", "24% (inactive)"],
  ["COc1ccc(C(=O)Nc2ccc(S(=O)(=O)NC(C)C)cc2)cc1", "-112% (active)"]
]}

Challenge: Look up activity change (PNC), negative = inhibition of CCc1ccc(NC(=O)C(C)OC(=O)/C=C/c2cccc([N+](=O)[O-])c2)cc1 (stereo unspecified) and report it.
Response given: 10.2% (inactive)

Challenge: Complete the entry with activity change (PNC), negative = inhibition for `CNC(=O)CSc1nnnn1-c1ccc(C)cc1C`
Response given: -10.4% (inactive)

Challenge: For the compound `N#Cc1ccccc1Sc1ccccc1C(=O)OCC(=O)NC1CCCCC1` , report activity change (PNC), negative = inhibition.
Response given: 33.1% (inactive)

Challenge: Supply activity change (PNC), negative = inhibition value. Item: CCC(NC(=O)c1ccccc1NC(=O)c1ccccc1)C(=O)NNC(=O)CSc1nc2ccccc2o1 (stereo unspecified)
Response given: -4.05% (inactive)

Challenge: Give the value of activity change (PNC), negative = inhibition reported for the following: `O=c1c2sccc2nc(SCc2cc(=O)n3ccccc3n2)n1-c1ccc(Br)cc1`
Response given: 0.678% (inactive)

Challenge: Report activity change (PNC), negative = inhibition for CC(=O)NC1=NN(C(C)=O)C(C)(CCS(=O)(=O)c2ccc(Cl)c(Cl)c2)S1 (stereo unspecified)
Response given: 72.1% (inactive)
